Molecular target: Beta-galactosidase (Caldicellulosiruptor saccharolyticus (strain ATCC 43494 / DSM 8903))
Sequence (A4XI97 whole entry): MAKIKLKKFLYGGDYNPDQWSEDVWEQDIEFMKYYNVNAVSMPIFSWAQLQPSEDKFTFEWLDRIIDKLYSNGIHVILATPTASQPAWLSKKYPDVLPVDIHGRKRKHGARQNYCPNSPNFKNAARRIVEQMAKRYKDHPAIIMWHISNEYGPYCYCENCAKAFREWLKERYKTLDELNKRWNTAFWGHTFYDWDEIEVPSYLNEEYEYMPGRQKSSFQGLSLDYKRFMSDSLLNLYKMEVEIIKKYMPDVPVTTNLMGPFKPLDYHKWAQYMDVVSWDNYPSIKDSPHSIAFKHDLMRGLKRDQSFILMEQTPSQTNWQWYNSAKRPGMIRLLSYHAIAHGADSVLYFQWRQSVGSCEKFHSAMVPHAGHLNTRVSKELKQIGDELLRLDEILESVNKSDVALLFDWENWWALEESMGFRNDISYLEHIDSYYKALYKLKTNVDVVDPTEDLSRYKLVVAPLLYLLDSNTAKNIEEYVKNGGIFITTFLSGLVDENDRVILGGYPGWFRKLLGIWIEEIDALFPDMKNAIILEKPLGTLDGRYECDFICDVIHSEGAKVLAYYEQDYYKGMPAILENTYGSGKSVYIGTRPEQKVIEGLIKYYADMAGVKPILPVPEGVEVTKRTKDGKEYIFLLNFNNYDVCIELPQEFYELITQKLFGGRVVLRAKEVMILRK
Experiment: Inhibition of Caldicellulosiruptor saccharolyticus beta galactosidase
TEST READOUT: log10 IC50 (log10 of the value in µM)
Please note: log10 values; quantity IC50; unit µM.

# example entries with known answers
COMPOUND: C[C@@H]1[C@@H](O)[C@H](O)[C@@H]2[C@H](O)[C@H](O)[C@@H](CO)N21 (relative stereo)
log10 IC50: 2.82
--
COMPOUND: OC[C@@H]1C[C@@H](O)[C@@H]2[C@H](O)[C@H](O)[C@@H](CO)N12 (relative stereo)
log10 IC50: 1.40
--
COMPOUND: CC[C@@H]1N[C@H](CO)[C@@H](O)[C@H](O)[C@@H]1O
log10 IC50: 1.71
--
COMPOUND: C[C@H]1[C@H](O)[C@@H](O)[C@@H]2[C@@H](O)[C@H](O)[C@@H](CO)N21 (relative stereo)
log10 IC50: 1.68

Input OC[C@@H]1C[C@H](O)[C@@H]2[C@H](O)[C@H](O)[C@@H](CO)N12 (relative stereo) . Output log10 IC50: 1.11
